# assay info: Cytotoxicity against African green monkey Vero E6 cells incubated for 48 hrs by Neutral Red method
# Format: toxicity, cell-based, Vero C1008
# cond: chlorocebus sabaeus, Vero E6 cells
reported metric: CC50 at 48 h

> print(dat)
                         structure.notation  measured.value
1  CCn1ccc(-c2cc(-c3cnn(C)c3)cc([C@@H](C)NC(=O)c3ccccc3CCC(=O)NNC(=O)/C=C/C(=O)N3CCC3)c2)n1        > 250 µM
2  C#CCNC(=O)CCc1ccccc1C(=O)N[C@H](C)c1cc(-c2cnn(C)c2)cc(-c2ccn(CC)n2)c1          256 µM
3  CCn1ccc(-c2cc(-c3cnn(C)c3)cc([C@@H](C)NC(=O)c3ccccc3CCC(=O)NCC(=O)CF)c2)n1        > 250 µM
4  CCn1ccc(-c2cc(-c3cnn(C)c3)cc([C@@H](C)NC(=O)c3ccccc3CCC(=O)NNC(=O)/C=C/CN(C)C)c2)n1        > 250 µM
5  CCn1ccc(-c2cc(-c3cnn(C)c3)cc([C@@H](C)NC(=O)c3ccccc3CNC(=O)CNC(=O)/C=C/C(=O)N3CC(F)(F)C3)c2)n1        > 250 µM
6  CCn1ccc(-c2cc(-c3cnn(C)c3)cc([C@@H](C)NC(=O)c3ccccc3CCC(=O)NCCC#N)c2)n1          146 µM
7  CCn1ccc(-c2cc(-c3cnn(C)c3)cc([C@@H](C)NC(=O)c3ccccc3CCC(=O)NNC(C)=O)c2)n1        > 250 µM
